test-summary: biodistribution and PET/CT in ZR-75-1 tumor-bearing NOD scid gamma mice
setup-conditions: female, NOD scid gamma (NOD.Cg-Prkdc^sci Il2rg^tm1Wjl/SzJ), mouse, in vivo, iv, total radioactivity, Muscle uptake
measured-parameter: tissue uptake at 1 h (%ID/g)
Give the number; %ID/g is assumed, so skip it.

get_value(item= C[C@@H](O)[C@@H]1NC(=O)[C@H](CCCCN)NC(=O)[C@@H](Cc2c[nH]c3ccccc23)NC(=O)[C@H](Cc2ccc(O)cc2)NC(=O)[C@@H](NC(=O)[C@@H](Cc2ccccc2)NC(=O)CN2CCN(CC(=O)O)CCN(CC(=O)O)CCN(CC(=O)O)CC2)CSSC[C@@H](C(=O)N[C@H](CO)[C@@H](C)O)NC1=O [^68Ga-DOTATOC, ^68Ga-DOTA-Tyr^3-octreotide, metal not drawn] , readout=tissue uptake at 1 h) returns 0.11

The molecule identified as C[C@@H](O)[C@@H]1NC(=O)[C@H](CCCCN)NC(=O)[C@@H](Cc2ccc(NC(N)=O)cc2)NC(=O)[C@H](Cc2ccc(NC(=O)[C@@H]3CC(=O)NC(=O)N3)cc2)NC(=O)[C@H](NC(=O)[C@H](Cc2ccc(Cl)cc2)NC(=O)CCC(C(=O)O)N2CCN(CC(=O)O)CCN(CC(=O)O)CC2)CSSC[C@@H](C(=O)N[C@H](Cc2ccc(O)cc2)C(N)=O)NC1=O (some centres unmarked) [^68Ga-NODAGA-JR11, metal not drawn] registered its tissue uptake at 1 h at 0.28

###

I'd be grateful if you could share measured tissue uptake at 1 h for these entries.
test-summary: biodistribution and PET/CT in ZR-75-1 tumor-bearing NOD scid gamma mice
setup-conditions: female, NOD scid gamma (NOD.Cg-Prkdc^sci Il2rg^tm1Wjl/SzJ), mouse, in vivo, iv, total radioactivity, Bone uptake
Kindly answer with a numeric value in %ID/g, unit omitted.

So, C[C@@H](O)[C@@H]1NC(=O)[C@H](CCCCN)NC(=O)[C@@H](Cc2ccc(NC(N)=O)cc2)NC(=O)[C@H](Cc2ccc(NC(=O)[C@@H]3CC(=O)NC(=O)N3)cc2)NC(=O)[C@H](NC(=O)[C@H](Cc2ccc(Cl)cc2)NC(=O)CCC(C(=O)O)N2CCN(CC(=O)O)CCN(CC(=O)O)CC2)CSSC[C@@H](C(=O)N[C@H](Cc2ccc(O)cc2)C(N)=O)NC1=O (stereo partly drawn) [^68Ga-NODAGA-JR11, metal not drawn] ? Its tissue uptake at 1 h was 0.26

Documented tissue uptake at 1 h of C[C@@H](O)[C@H](NC(=O)[C@@H]1CSSC[C@H](NC(=O)[C@@H](Cc2ccccc2)NC(=O)CN2CCN(CC(=O)O)CCN(CC(=O)O)CCN(CC(=O)O)CC2)C(=O)N[C@@H](Cc2ccc(O)cc2)C(=O)N[C@H](Cc2c[nH]c3ccccc23)C(=O)N[C@@H](CCCCN)C(=O)N[C@@H]([C@@H](C)O)C(=O)N1)C(=O)O [^68Ga-DOTATATE, ^68Ga-DOTA-Tyr^3-octreotate, metal not drawn] : 0.25

Looking up C[C@@H](O)[C@@H]1NC(=O)[C@H](CCCCN)NC(=O)[C@@H](Cc2c[nH]c3ccccc23)NC(=O)[C@H](Cc2ccc(O)cc2)NC(=O)[C@@H](NC(=O)[C@@H](Cc2ccccc2)NC(=O)CN2CCN(CC(=O)O)CCN(CC(=O)O)CCN(CC(=O)O)CC2)CSSC[C@@H](C(=O)N[C@H](CO)[C@@H](C)O)NC1=O [^68Ga-DOTATOC, ^68Ga-DOTA-Tyr^3-octreotide, metal not drawn] , I found its tissue uptake at 1 h recorded as 0.2

###

test-summary: biodistribution and PET/CT in ZR-75-1 tumor-bearing NOD scid gamma mice
setup-conditions: female, NOD scid gamma (NOD.Cg-Prkdc^sci Il2rg^tm1Wjl/SzJ), mouse, in vivo, iv, total radioactivity, Stomach uptake
Would you mind telling me the reported tissue uptake at 1 h of each entry?
State the answer as a number, implicitly in %ID/g.

Reported tissue uptake at 1 h for C[C@@H](O)[C@H](NC(=O)[C@@H]1CSSC[C@H](NC(=O)[C@@H](Cc2ccccc2)NC(=O)CN2CCN(CC(=O)O)CCN(CC(=O)O)CCN(CC(=O)O)CC2)C(=O)N[C@@H](Cc2ccc(O)cc2)C(=O)N[C@H](Cc2c[nH]c3ccccc23)C(=O)N[C@@H](CCCCN)C(=O)N[C@@H]([C@@H](C)O)C(=O)N1)C(=O)O [^68Ga-DOTATATE, ^68Ga-DOTA-Tyr^3-octreotate, metal not drawn] was 8.29

tissue uptake at 1 h recorded for this compound, C[C@@H](O)[C@@H]1NC(=O)[C@H](CCCCN)NC(=O)[C@@H](Cc2ccc(NC(N)=O)cc2)NC(=O)[C@H](Cc2ccc(NC(=O)[C@@H]3CC(=O)NC(=O)N3)cc2)NC(=O)[C@H](NC(=O)[C@H](Cc2ccc(Cl)cc2)NC(=O)CCC(C(=O)O)N2CCN(CC(=O)O)CCN(CC(=O)O)CC2)CSSC[C@@H](C(=O)N[C@H](Cc2ccc(O)cc2)C(N)=O)NC1=O (stereo partly drawn) [^68Ga-NODAGA-JR11, metal not drawn] , is 1.36

response.value for C[C@@H](O)[C@@H]1NC(=O)[C@H](CCCCN)NC(=O)[C@@H](Cc2c[nH]c3ccccc23)NC(=O)[C@H](Cc2ccc(O)cc2)NC(=O)[C@@H](NC(=O)[C@@H](Cc2ccccc2)NC(=O)CN2CCN(CC(=O)O)CCN(CC(=O)O)CCN(CC(=O)O)CC2)CSSC[C@@H](C(=O)N[C@H](CO)[C@@H](C)O)NC1=O [^68Ga-DOTATOC, ^68Ga-DOTA-Tyr^3-octreotide, metal not drawn] (field: tissue uptake at 1 h) = 2.75

###

test-summary: biodistribution and PET/CT in ZR-75-1 tumor-bearing NOD scid gamma mice
setup-conditions: female, NOD scid gamma (NOD.Cg-Prkdc^sci Il2rg^tm1Wjl/SzJ), mouse, in vivo, iv, total radioactivity, Adrenals uptake
measured-parameter: tissue uptake at 1 h

Note to self: tissue uptake at 1 h recorded for C[C@@H](O)[C@@H]1NC(=O)[C@H](CCCCN)NC(=O)[C@@H](Cc2ccc(NC(N)=O)cc2)NC(=O)[C@H](Cc2ccc(NC(=O)[C@@H]3CC(=O)NC(=O)N3)cc2)NC(=O)[C@H](NC(=O)[C@H](Cc2ccc(Cl)cc2)NC(=O)CCC(C(=O)O)N2CCN(CC(=O)O)CCN(CC(=O)O)CC2)CSSC[C@@H](C(=O)N[C@H](Cc2ccc(O)cc2)C(N)=O)NC1=O (some centres unmarked) [^68Ga-NODAGA-JR11, metal not drawn] was 2 %ID/g

Please fill in: tissue uptake at 1 h reported for C[C@@H](O)[C@@H]1NC(=O)[C@H](CCCCN)NC(=O)[C@@H](Cc2c[nH]c3ccccc23)NC(=O)[C@H](Cc2ccc(O)cc2)NC(=O)[C@@H](NC(=O)[C@@H](Cc2ccccc2)NC(=O)CN2CCN(CC(=O)O)CCN(CC(=O)O)CCN(CC(=O)O)CC2)CSSC[C@@H](C(=O)N[C@H](CO)[C@@H](C)O)NC1=O [^68Ga-DOTATOC, ^68Ga-DOTA-Tyr^3-octreotide, metal not drawn] = 9.52 %ID/g

###

test-summary: biodistribution and PET/CT in ZR-75-1 tumor-bearing NOD scid gamma mice
setup-conditions: female, NOD scid gamma (NOD.Cg-Prkdc scid Il2rg tm1Wjl/SzJ), mouse, in vivo, iv, total radioactivity, Tumor to Background Ratio: Blood (tumor-to-blood)
Protocol: All animal studies were done in compliance with the Canadian Council on Animal Care guidelines and were approved by the Animal Care Committee of University of British Columbia (Vancouver, Canada). […] Mice were sedated using 2 mL/min of O2 with 2% isoflurane and injected intravenously (i.v.) with 1–2 MBq of ^68Ga-labeled peptide. […] Uptake was normalized to the injected dose and to the respective weight of the organ, and expressed as percent injected dose per gram of tissue (%ID/g). […]
measured-parameter: tissue to tissue ratio at 1 h
I'd appreciate a reply containing only the number, no unit.

Item: C[C@@H](O)[C@@H]1NC(=O)[C@H](CCCCN)NC(=O)[C@@H](Cc2ccc(NC(N)=O)cc2)NC(=O)[C@H](Cc2ccc(NC(=O)[C@@H]3CC(=O)NC(=O)N3)cc2)NC(=O)[C@H](NC(=O)[C@H](Cc2ccc(Cl)cc2)NC(=O)CCC(C(=O)O)N2CCN(CC(=O)O)CCN(CC(=O)O)CC2)CSSC[C@@H](C(=O)N[C@H](Cc2ccc(O)cc2)C(N)=O)NC1=O (stereo partly shown) [^68Ga-NODAGA-JR11, metal not drawn] | tissue to tissue ratio at 1 h: 15.6
